The reported measurements were obtained from the nanobody polyreactivity screen of Harvey et al. (2022).

# methodSummary: yeast display, Sf9 membrane polyspecificity reagent, FACS + sequencing; frameworks hold sequencing errors
reportedMetric: polyreactivity (PSR sort gate)

// solved cases for polyreactivity (PSR sort gate) follow
inputSequence	polyreactivity (PSR sort gate)
QVQLVESGGGLVQAGGSLRLSCAASGRTFRKNAMGWSRQAPGKDRELVAAISASGTSTYYADSVKGRFTISRDNAKNTVYLQLNSLKPEDTAVYYSAARSYGIYDYWGQGTQVTVSS	high polyreactivity
QVQLVESGGGLVQAGGSLRLSCAASGFIFGYNAMGWYRKAPGTERELVAAITWIGGTTYYADSVKGRFTISRDNAKNTVYLQMNSLKPEDTAVYYCARQRSYGRSSYSYGYDYWGQGTQVTVSS	high polyreactivity
QVQLVESGGGLVQAGGSLSLSCAASGRIFYGYAMGWYRLAPGKERELVAAIRTSGGSTYYADSVKGRFTISRDNAKNTVYLQMNSLKPEDTAVYYCNAGIVPRNRYYTPYNYWGQGTQVTVSS	low polyreactivity
QVQLVESGGGLVQAGGSHRLSCAASGRTFKLYAMGWYRQAPGKERELVAAITESGRSTYYADSVKGRFTFSRDNAKNTVYLQMNSLKPEDTAVYYCAALGIGSYRRYSGYDYWGQGTQVTVSS	low polyreactivity

Moving on to the next sequence.
Reported polyreactivity (PSR sort gate) ( `QVQLVESGGGLVQAGGSLRLSCAASGFIFYKNAMGWYRQAPGKERELVAAINWSGGSTYYADSVKGRFTISRDNAKNTVYLQMNSLKPEDTAVYYCAVVVYSGYRHYYWGQGTQVTVSS` ) = high polyreactivity

---

# methodSummary: yeast display, Sf9 membrane polyspecificity reagent, FACS + sequencing; frameworks hold sequencing errors
reportedMetric: polyreactivity (PSR sort gate)

inputSequence	dataValue
QVQLVESGGFLVQAAGSLRLSCDASGFTFSSYSMGWYRQAPGKERELVAAISTRGGSTYYADSVKGRFTISLDNAMNSVYLLLNSLKPEDTADYYCATGGRGGRRYDYWGQGTQVTVSS	low polyreactivity
QVQLVESGGGLVQAGGSLRLSCAASGSTLSKYAMGWYRQAPGKERELVATISIRGGNTYYADSVKGRFTFSRDNAKNTVYLQMNSLKPEDTAVYYCAARRVNAPPSYRQKAGYDYWGQGTQVTVSS	high polyreactivity
QVQLVESGGGLVQAGGSLRLSCAASGLIFPYYVMGWYRQAPGKERELVAAITWSGGRTYYADSVKGRFTISRDNAKNTVSLQMNSLKPEDTAVYYCAATYWTIDYWGQGTQVTVSS	low polyreactivity
QVQLVESGGGLVQAGGSLRLICAASGSIFAYNAMGWYRQAPGKERELVAAITDSAGSTYYADSVKGRFTISRDNAKNTVYLQMYSLKPEDTAVYYGAKYTTRGVYRYWPKDMDYWGQGTQVTVSS	low polyreactivity
QVQLVESGGGLVQAGGSLRLSCAASGFTFTYYAMGWYRQAPGKERELVAAISWNGGSTYYADSVKGRFTISRDNAKNTVYLQMNSLKPEDTAVYYCNAYDYQYFYGYEYDYWGQGTQVTVSS	high polyreactivity
QVQLVESGGGLVQAGGSLRLSCAASGFTLLGNTMGWYRQAPGKERELVAAIRTNSGRTYYADSVKGRFTISRDNAKNTVYLQMNSLKPEDTAVYYCAKRYFSYLGREMDYWGQGTQVTVSS	high polyreactivity
QVQLVESGGGLVQAGGRLRLSCAASGIIFPRYMGWYRQAPGKERELVAAIRWSSDDTNYADSVKGRFTISRDNAKNTVYLQMNSLKPEDTAVYYCAAHSYYDRTIQFEFSARTYDYWGQGTQVTVSS	low polyreactivity
QVQLVESGGGLVQAVGSLRLSCAASGRIFGYYDMGWYRQAPGKERELVAAINYDGGSTYYADSVKGRFTISRDNAKNTVYLQMNSLKPDDTAVYYCNKDGRVYLDHDYWGQGTQVTVSS	low polyreactivity

Consider the additional sequence presented here.
Input `QVKLVESGGGLVQAGGSLRISCAASGRTFGYNAMGWYRQAPGKERELVAGISGRTASTYYADSVKGRFTISRDNAKNTVYLQMNSLKPVDTEVYYCATQFGSIYRYDYWGQGTEVTVSS` . Output polyreactivity (PSR sort gate): high polyreactivity

---

# methodSummary: yeast display, Sf9 membrane polyspecificity reagent, FACS + sequencing; frameworks hold sequencing errors
reportedMetric: polyreactivity (PSR sort gate)

inputSequence	dataValue
QVQLVESGGGLVQAGGSLRLSCAASGSIFTVYAMGWYRQAPGKERELVAVINYRGGNTYYADSVKGRFTISRDNAKNTVYLQMNSLKPEDTAVYYCATEVSWHWYQLSVPRMDYWGQGTQVTVSS	low polyreactivity
QVQLVESGGGLGQAGGSLRLSCAASGFTFDFYAMGWYRQAPGKERELVAAISKNDGTTYYADSVKGRFTISRDNAKNTVYLQMNSLKPEDTAVYYCAAESGYPVYTYVSSGDYWGQGTQVTVSS	low polyreactivity
QVQLVESGGGLVQAGGSLRLSCAASGRTFYYAMGWYRPAPGKERELVAGITWSGGSTYYADSVKGRFTISRDNAKNTVYLQMNSLKPEDTAVYYCNAVYRYRTYRYDYWGQGTQVTVSS	high polyreactivity
QVQLVESGGGLVQAGGSLRLSCAASGRTFQYYAMGWYRQAPGQERELVAAITSGGSTYYADSVKGRFTISRDNAKNTVYLQMNSLKPEDTAVYYCAATFYYSGHYDYWGQGTQVTVSS	low polyreactivity
QVQLVESGGGLVQAGGSLRLSCAASGLIFSGYAMGWYRQAPGKERELVAAISRGGGRTSYADSVKGRFTISRDNAKNTVYLQMNSLKPEDTAVYYCAKDPRYLRYEHWGQGSQVTVSS	high polyreactivity
QVQLVESGGGLVQAGGSLRLSCAASGSIFDVNAMGWYRQAPGKERELVAAITWSGGITYYADSVKGRFTISRDNAKNTVYLQMNSLKPEDTAVYYCNVYVTAGEEDEYWGQGTQVTVSS	low polyreactivity
QVQLVESGGGLVQAGGSLRLSCSASGRIFSPYAMGWYRQAPGKERELVAAISWRGSSTYYADSVKGRFTISPDNAKNTVYLQMNSLKPEDTAVYYCAAPSSKYWGQGTQVTVSS	low polyreactivity
QVQLVESGGCLVQAGGSLRLSCAASGFTFYAYTMGWYRQAPGKERELVAAITKTGSRTYYADSVKGRFTISRDNAKNTVYLQMNSLKPEDTAVYYCAAASYIRVKGISRYDSWGQGTQVTVSS	high polyreactivity

The sequence identified as `QVQLVESGGGLVQAGGSLRLSCAASGRTFPYYAMGWYRQAPGKERELVAAITWSGGTTYYADSVKGRFTISRDNAKNTVYLQMNSLKPEDTAVYYCAADFYGPDGYDYWGQGTQVTVSS` registered its polyreactivity (PSR sort gate) at low polyreactivity

// field: polyreactivity (PSR sort gate); key: `QVQLVESGGGLVQAGGSLRLSCAASGIIFSIYTMGRYRQAPGKERELVAAINRSGSRTYYADSVKGRFTISRDNAKNTVYLQMNSLKPEDTAVYYCAAGTGSRDYYWGQGTQVTVSS` ; value = high polyreactivity

get_value(item= `QVQLEESGGGLVQAGGSLRLICAASGSIFYYKYAMGGYRQAPGKERELVAAITSTGGTTYYADSVKGRFTISRDNAKNTVYLQMNSLKPEDTAVYYCAALAPYIGGVDYDYWGQGTQVTVSS` , readout=polyreactivity (PSR sort gate)) returns low polyreactivity

---

# methodSummary: yeast display, Sf9 membrane polyspecificity reagent, FACS + sequencing; frameworks hold sequencing errors
reportedMetric: polyreactivity (PSR sort gate)

Consider the following illustrative entries.
inputSequence	reportedMetric	dataValue
QVQIVESGGGLVQAGGSLRLSCAASGLTLGRNAMGWYRQAPGKERELVAAITQSGGSTYYADSVKGRFTISRDNAKNTVYLQMNSLKPEDTAVYYCAAEVVRQWHGIGYDYWGHGTQVTVSS	polyreactivity (PSR sort gate)	low polyreactivity
QVQLVESGGGLLQAGGSLRLSCAASGFTVYRYAMGWYRPEPGKERELGAAITWSGGSTYYADSVKGRFTISRDNAKKSVYFQMNSLKPEDTAVYYCAKETAPSRLPYGYWGQGTQVNVSS	polyreactivity (PSR sort gate)	low polyreactivity
QDQLVESGGGLLQAGGSLRLSCAASGLTFSDYAMGWYRQAPGKEREFVAAITRNGGSTRYADSVKGRFTISRDNAKNTVYVQMNSVKPEDTAVFYCHKVSFVYSRSKGFYYTYLKFEYWGQGTQVTVSS	polyreactivity (PSR sort gate)	low polyreactivity
QVQLEESGGGLVQAGGSLRLSCAASGSTFYSYVMGWYRQAPGKERELVAAISSIGGSTYYADSVKGRFTISRDNAKNTVYLQMNSLKPEDTAVYYCAAEPPGSTYEGGYWGQGTQVTVSS	polyreactivity (PSR sort gate)	low polyreactivity
QVQLVESGGGLVQAGGRLRLSCAASGSTFQRYAMGWYRQAPGKDRELVAAISSTGGSTFYADSVKGRFTISRDTAKNTVYLHMNSLKPEDTAVYYCNKYRATNSARDYWGQGTQVTVSS	polyreactivity (PSR sort gate)	high polyreactivity
QVQLVESGGGLVQAGGILRLSCAASGIIFGYNAMGWYRQAPGKERELVAAISYGGGRTYYADSVKGRFTISRDNAKNSVYLQMNSLKPEDTAVYYCAAQYFASRSYGYDYWGQGTQVTVSS	polyreactivity (PSR sort gate)	high polyreactivity

Okay, now this sequence:
Form field polyreactivity (PSR sort gate), entry `QVQLVESGGGLVQAGGSLRLSCAASGIIFIYYDMGWYRQAPGKERELVAAISRSGGSTYYADSVKGRFTISRDIAKNTFYLQMNSLKPEDTAVYYCAARRITSTDEYYWGHGTQVTVSS` : high polyreactivity
